# method description: in vitro
# condition set: human, hela cells, % viability
Recorded viability at 28.5 h, 10 µM for the following compounds
Answer in %, number only, no unit symbol.

{"compound": "CC(NC(=O)c1ncoc1-c1ccccc1F)c1ccccn1 (stereo not drawn)", "viability at 28.5 h, 10 µM (%)": 91.4}
{"compound": "CC(C)(O)C1(C)OC(NC2C3CC4CC(C3)CC2C4)=NC1=O (stereo not drawn)", "viability at 28.5 h, 10 µM (%)": 91.2}

Ask: State the recorded viability at 28.5 h, 10 µM for this entry: COc1ccc([C@]23CC[C@H](NC(=O)Nc4ccc(F)cc4F)C[C@H]2N(C)CC3)cc1OC [CBK066917T]
Reply: 90.6
